Target: tankyrase 2 (His6-TNKS2) (Homo sapiens)
Sequence (Q9H2K2 934-1166): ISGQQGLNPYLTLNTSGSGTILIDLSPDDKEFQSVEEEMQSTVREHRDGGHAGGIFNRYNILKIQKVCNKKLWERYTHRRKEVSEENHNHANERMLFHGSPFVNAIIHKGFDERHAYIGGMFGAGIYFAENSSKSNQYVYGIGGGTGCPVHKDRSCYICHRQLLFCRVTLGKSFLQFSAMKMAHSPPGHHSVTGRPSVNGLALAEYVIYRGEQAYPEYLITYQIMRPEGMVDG
ENDPOINT_NAME: IC50 (µM)

Cc1cccc2c(=O)[nH]c3c(c12)COC(C1CCN(C(=O)C2(C)CC2)CC1)C3 (racemic); 0.021
Cc1cccc2c(=O)[nH]c3c(c12)COC(C1CCN(C(=O)C2CC2)CC1)C3 (racemic); 0.0269
CC(C)(C)OC(=O)N1CCC([C@H]2Cc3[nH]c(=O)c4ccccc4c3CO2)CC1 (single isomer, unassigned); 0.0992
CC(C)(C)OC(=O)N1CCC(C2Cc3[nH]c(=O)c4ccccc4c3CO2)CC1 (racemic); 0.0467

[P] CC1(C(=O)N2CCC(C3Cc4[nH]c(=O)c5ccccc5c4CO3)C2)CC1 (stereo not shown)
[Q] CS(=O)(=O)N1CCC(C2Cc3[nH]c(=O)c4ccccc4c3CO2)CC1 (racemic)
[R] CC(C)(O)c1ccc2c(=O)[nH]c3c(c2c1)COC(C(C)(C)C)C3 (racemic)
-- ask List by increasing IC50. Submit the labels in the order that the ranking request calls for.
-- reply Q, P, R

Source: patent US20140121231A1
